PROCEDURE TEXT: Plasma stability assay
Assay type: in vitro ADME
EXPERIMENTAL PARAMETERS: human plasma diluted 2-fold in PBS, pH 7.4, 37 °C, 180 min, read-out: Plasma stability t1/2
ENDPOINT NAME: half-life at 1 µM

The compound identified as Cc1cc(C2(c3cccc(-c4cncnc4)c3)N=C(N)N(C)C2=O)ccc1OC(F)F (stereo not shown) registered its half-life at 1 µM at > 3 h

----------
PROCEDURE TEXT: Kinetic solubility assay
Type: physicochemical
EXPERIMENTAL PARAMETERS: aqueous buffer, kinetic from dmso stock, PBS pH 7.4, 37 °C
ENDPOINT NAME: solubility kinetic at 90 min (µM)
Lab book: enter the figure in µM, no units written.

Lookup result for Cc1cc(C2(c3cccc(-c4cncnc4)c3)N=C(N)N(C)C2=O)ccc1OC(F)F (stereo not shown) ; measured solubility kinetic at 90 min: 88

----------
STUDY TARGET: potassium channel hERG (human) (Homo sapiens, UniProt Q12809)
Sequence (Q12809 whole entry): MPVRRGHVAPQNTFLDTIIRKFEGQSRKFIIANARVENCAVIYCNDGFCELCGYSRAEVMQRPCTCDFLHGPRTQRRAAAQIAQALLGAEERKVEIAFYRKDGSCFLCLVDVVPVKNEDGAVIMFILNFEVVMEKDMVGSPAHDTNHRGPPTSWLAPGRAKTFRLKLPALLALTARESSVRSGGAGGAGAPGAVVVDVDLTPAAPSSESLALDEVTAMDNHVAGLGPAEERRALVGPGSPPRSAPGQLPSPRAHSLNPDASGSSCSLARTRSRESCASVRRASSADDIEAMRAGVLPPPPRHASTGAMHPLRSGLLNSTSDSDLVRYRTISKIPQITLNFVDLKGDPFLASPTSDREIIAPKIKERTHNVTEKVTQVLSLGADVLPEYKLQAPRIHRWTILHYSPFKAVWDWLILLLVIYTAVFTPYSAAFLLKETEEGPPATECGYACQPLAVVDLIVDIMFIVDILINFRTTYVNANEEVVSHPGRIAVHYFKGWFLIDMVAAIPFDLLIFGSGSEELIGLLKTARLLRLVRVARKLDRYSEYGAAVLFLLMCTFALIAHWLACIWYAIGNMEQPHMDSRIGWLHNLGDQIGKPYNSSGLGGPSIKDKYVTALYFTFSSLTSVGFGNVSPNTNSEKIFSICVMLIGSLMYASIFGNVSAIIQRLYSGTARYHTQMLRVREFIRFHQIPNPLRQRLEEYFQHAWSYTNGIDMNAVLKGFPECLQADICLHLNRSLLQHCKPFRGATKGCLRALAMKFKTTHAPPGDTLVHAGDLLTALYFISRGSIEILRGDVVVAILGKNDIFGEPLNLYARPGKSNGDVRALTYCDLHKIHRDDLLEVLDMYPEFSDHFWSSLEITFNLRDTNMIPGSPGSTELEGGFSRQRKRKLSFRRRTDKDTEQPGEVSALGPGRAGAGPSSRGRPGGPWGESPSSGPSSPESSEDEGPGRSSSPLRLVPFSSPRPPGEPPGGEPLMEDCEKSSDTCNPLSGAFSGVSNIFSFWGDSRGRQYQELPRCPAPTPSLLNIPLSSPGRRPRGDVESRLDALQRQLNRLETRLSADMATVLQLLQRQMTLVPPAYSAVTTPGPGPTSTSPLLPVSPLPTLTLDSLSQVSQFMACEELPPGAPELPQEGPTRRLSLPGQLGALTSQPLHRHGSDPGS
ENDPOINT NAME: IC50

Form field, IC50 with potassium channel hERG (human) (Homo sapiens, UniProt Q12809), item Cc1cc(C2(c3cccc(-c4cncnc4)c3)N=C(N)N(C)C2=O)ccc1OC(F)F (stereo not shown) [FAH65] : > 10 µM

----------
STUDY TARGET: potassium channel hERG (human) (Homo sapiens, UniProt Q12809)
Construct: Eurofins (CEREP PanLabs)
PROCEDURE TEXT: hERG [3H] dofitilide binding assay
pEC50: −log10 of the molar value.
ENDPOINT NAME: pEC50

Reported pEC50 of Cc1cc(C2(c3cccc(-c4cncnc4)c3)N=C(N)N(C)C2=O)ccc1OC(F)F (stereo not shown) : < 5.00

----------
PROCEDURE TEXT: Efficacy testing in B254 mice
Assay type: in vivo, mouse
EXPERIMENTAL PARAMETERS: both sexes, B254, mouse, brain, oral, 30 mg/kg BID, chronic, 2 h after last day dosing, read-out: mean brain level of compound
Text: B254 mice are an AD model comprising expression of human APP with Swedish and Indiana mutations along with a D664A substitution and endogenous murine tau, as described in Galvan et al.. In our in vivo studies, we detected impairment in learning and memory in B254 D664A mice at 5–6 months of age (end of chronic treatment) in the novel location and novel object spatial memory testing paradigms. […]
ENDPOINT NAME: concentration at 2 h

The compound identified as Cc1cc(C2(c3cccc(-c4cncnc4)c3)N=C(N)N(C)C2=O)ccc1OC(F)F (stereo not shown) [FAH65] registered its concentration at 2 h at ~50 ng/g

----------
PROCEDURE TEXT: Liver microsome stability assay
Type: in vitro ADME
EXPERIMENTAL PARAMETERS: human, human liver microsomes, pH 7.4, human liver microsomes; read-out: Microsomal stability T1/2
ENDPOINT NAME: half-life at 1 µM (min)
Give your result in min as a bare value.

// sample Cc1cc(C2(c3cccc(-c4cncnc4)c3)N=C(N)N(C)C2=O)ccc1OC(F)F (stereo not shown) , its half-life at 1 µM was 38

----------
STUDY TARGET: BACE1 cleavage of NRG1 (Homo sapiens, UniProt P56817)
Construct: with or without full-length wild-type BACE1
Sequence (P56817 46-501): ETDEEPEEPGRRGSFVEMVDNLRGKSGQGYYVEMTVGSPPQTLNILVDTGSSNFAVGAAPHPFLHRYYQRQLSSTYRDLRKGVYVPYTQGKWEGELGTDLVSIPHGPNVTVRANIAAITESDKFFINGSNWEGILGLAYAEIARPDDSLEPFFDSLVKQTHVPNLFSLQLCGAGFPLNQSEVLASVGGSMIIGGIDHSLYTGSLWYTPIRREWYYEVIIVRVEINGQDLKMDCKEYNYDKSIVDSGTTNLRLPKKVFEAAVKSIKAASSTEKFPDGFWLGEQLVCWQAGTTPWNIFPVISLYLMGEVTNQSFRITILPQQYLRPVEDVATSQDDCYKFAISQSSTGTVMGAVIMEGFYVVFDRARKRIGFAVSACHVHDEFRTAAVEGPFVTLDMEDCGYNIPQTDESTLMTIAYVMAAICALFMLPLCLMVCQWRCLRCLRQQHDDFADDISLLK
PROCEDURE TEXT: SEAP-NRG assay
EXPERIMENTAL PARAMETERS: Table S1
ENDPOINT NAME: pIC50
# pIC50 is unitless: minus log10 of the molar concentration; print number only

Consider Cc1cc(C2(c3cccc(-c4cncnc4)c3)N=C(N)N(C)C2=O)ccc1OC(F)F (stereo not shown) . Its measured pIC50 is 5.70

----------
STUDY TARGET: BACE1 cleavage of NRG1 (Homo sapiens)
Construct: with or without full-length wild-type BACE1
PROCEDURE TEXT: SEAP-NRG assay
EXPERIMENTAL PARAMETERS: SEAP-NRG1, HEK293
pEC50: −log10 of the molar value.
ENDPOINT NAME: pEC50

Entry under test: Cc1cc(C2(c3cccc(-c4cncnc4)c3)N=C(N)N(C)C2=O)ccc1OC(F)F (centres unmarked) . Its pEC50 was < 5.00

// next item, pEC50 requested
Short answer for Cc1cc(C2(c3cccc(F)c3)N=C(N)N(C)C2=O)ccc1OC(F)F (centres unmarked) : pEC50 was < 5.00
